Where these numbers come from: paper PMC4072508

Molecular target: T1, Mcl-1, Q07820
T1 chain: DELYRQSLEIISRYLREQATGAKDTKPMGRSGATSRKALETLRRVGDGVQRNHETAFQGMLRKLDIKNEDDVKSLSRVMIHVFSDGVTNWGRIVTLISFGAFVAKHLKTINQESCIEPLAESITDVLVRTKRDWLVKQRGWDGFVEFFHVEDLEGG
Assay: peptide SPOT array, c-Myc-tagged receptor at 1 uM or 100 nM, anti-c-Myc-Cy3
quantity.name: SPOT signal as a fraction of Bim BH3's signal on the same receptor and array

a = KKCQDMIMTEDTNAGDDVVVFYNDKA [ITPR3]
b = PQRQRLLADLLHNVSQNIAAETRAED [DFFB]
Quick check, higher SPOT signal as a fraction of Bim BH3's signal on the same receptor and array between a and b ? Refer to your chosen entry by its label in the reply.
b
(b: 0.02, a: 0.01)

a = PYLSKHRADRDRRLGDFLNQESFDLA [SMPD2]
b = SFLSAHCASHDAWFGDSLTSLSQRLQ [TMEM214]
c = QRLINLVGESDRLLGNTFVALSDLRC [BAT3]
d = ACGDSVLARMLRELLDSLRRPQLRLW
e = LRCEMASTGEVACFGEGIHTAFLKAM [CPS1]
Order by SPOT signal as a fraction of Bim BH3's signal on the same receptor and array, ascending. Would you mind listing the labels in the order requested?
c, e, b, d, a
